Data credit: patent US7390833B2

- Measurement target: ADAMTS-4 (Agg-1) (Homo sapiens);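 also: purified enzyme preincubated 10 min with inhibitor at room temperature, then initial substrate cleavage rate (RFU/min) read by fluorescence plate reader versus the uninhibited rate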
- Sequence (O75173 213-837): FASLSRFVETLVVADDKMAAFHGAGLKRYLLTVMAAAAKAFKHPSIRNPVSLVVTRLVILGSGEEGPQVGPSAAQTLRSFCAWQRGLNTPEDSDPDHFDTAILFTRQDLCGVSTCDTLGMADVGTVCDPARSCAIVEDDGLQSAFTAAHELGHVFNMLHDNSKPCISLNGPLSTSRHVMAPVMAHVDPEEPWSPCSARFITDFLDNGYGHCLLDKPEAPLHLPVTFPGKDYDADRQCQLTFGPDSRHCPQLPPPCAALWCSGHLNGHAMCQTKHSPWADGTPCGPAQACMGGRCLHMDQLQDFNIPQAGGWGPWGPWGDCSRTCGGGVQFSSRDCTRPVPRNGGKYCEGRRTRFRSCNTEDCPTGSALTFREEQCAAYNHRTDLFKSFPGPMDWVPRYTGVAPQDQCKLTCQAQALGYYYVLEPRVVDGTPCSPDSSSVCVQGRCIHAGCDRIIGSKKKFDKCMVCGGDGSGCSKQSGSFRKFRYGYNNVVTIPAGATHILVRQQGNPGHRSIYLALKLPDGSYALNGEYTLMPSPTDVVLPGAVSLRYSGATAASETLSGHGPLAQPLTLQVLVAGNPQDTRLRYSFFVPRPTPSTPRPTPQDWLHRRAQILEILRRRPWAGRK
Experimental endpoint: pIC50
Remember the convention: pIC50 equals -log10 of concentration in molar.

Sample answers from the record:
{"Compound": "COc1cccc(OCc2ccc(-c3ccc(S(=O)(=O)N[C@@H](C(=O)O)C(C)C)cc3)cc2)c1", "Result": 5.74}
{"Compound": "CC(C)[C@@H](NS(=O)(=O)c1ccc(-c2ccc(COc3ccc4c(c3)CCCC4=O)cc2)cc1)C(=O)O", "Result": 6.70}

Could you please provide reported pIC50 for `O=C(O)CC[C@H](NC(=O)c1ccc(-c2ccccc2)cc1)C(=O)NCc1ccc(F)cc1` ? Thanks! 6.70

* * *

- Measurement target: ADAMTS-5 (Agg-2), purified recombinant human Aggrecanase-2 (Ag2t-Phe628-Strep) (Homo sapiens, UniProt Q9UNA0)
- Construct: the form used is denoted as Ag2t-Phe628-Strep (MW=41,737)
- Sequence (Q9UNA0 262-628): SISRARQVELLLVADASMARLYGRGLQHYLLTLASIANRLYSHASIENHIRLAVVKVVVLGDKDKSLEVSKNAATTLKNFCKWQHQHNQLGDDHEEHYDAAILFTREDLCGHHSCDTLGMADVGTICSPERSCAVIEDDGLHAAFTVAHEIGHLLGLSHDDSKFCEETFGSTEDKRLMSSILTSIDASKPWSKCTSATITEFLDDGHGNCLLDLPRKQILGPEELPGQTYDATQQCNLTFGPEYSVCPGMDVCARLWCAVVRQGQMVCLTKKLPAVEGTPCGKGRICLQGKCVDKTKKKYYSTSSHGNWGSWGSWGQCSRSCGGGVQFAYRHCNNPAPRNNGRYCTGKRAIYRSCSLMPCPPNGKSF
- Assay details: Inhibition of aggrecanase activity of ADAMTS-5 (Agg-2), continuous fluorescent quenched-peptide assay (WAKB-5 substrate)
- Test context: concentration that inhibits 50% of the aggrecanase activity of ADAMTS-5 (Agg-2); substrate 25 μM, pH 7.4, room temperature
Criterion: IC50 strictly under 3 µM. Met: 1. Not met: -1.

{"Molecule": "CC(C)[C@@H](NS(=O)(=O)c1ccc(-c2ccc(COc3cccc(F)c3)cc2)cc1)C(=O)O", "Class name": -1}
{"Molecule": "CC(C)[C@@H](NS(=O)(=O)c1ccc(-c2ccc(COc3ccc(C(=O)c4ccc(F)cc4)cc3)cc2)cc1)C(=O)O [drawing 171]", "Class name": 1}
{"Molecule": "CC(C)[C@@H](NS(=O)(=O)c1ccc(-c2ccc(COc3cccc(C(=O)c4ccccc4)c3)cc2)cc1)C(=O)O", "Class name": -1}
{"Molecule": "CC(C)[C@@H](NS(=O)(=O)c1ccc(-c2ccc(COc3ccc(Oc4ccccc4)cc3)cc2)cc1)C(=O)O", "Class name": 1}
{"Molecule": "CC(C)[C@@H](NS(=O)(=O)c1ccc(-c2ccc(COc3ccc(C(=O)c4ccccc4)cc3)cc2)cc1)C(=O)O", "Class name": 1}
{"Molecule": "CC(C)[C@@H](NS(=O)(=O)c1ccc(-c2ccc(COc3ccc4c(c3)CCCC4=O)cc2)cc1F)C(=O)O", "Class name": -1}
{"Molecule": "CC(C)[C@@H](NS(=O)(=O)c1ccc(-c2ccc(COc3ccc4c(c3)CCCC4=O)cc2)cc1)C(=O)O", "Class name": -1}

Is it true that IC50 reported for `CC(C)[C@@H](NS(=O)(=O)c1ccc(-c2ccccc2)cc1)C(=O)O` is less than 3 µM? -1
